Every entry's value here was drawn from PubChem BioAssay AID1996.

- condition_context: buffer; pH 7.4; 200.0 µM
Could you please report measured solubility kinetic for the items listed next?

Returns the measured solubility kinetic for the input compound. Input: c1ccc(Sc2ccccn2)cc1 > 28.1 µg/mL

Returns the measured solubility kinetic for the input compound. Input: CCN(C(=O)CN1CCCCCC1)c1c(N)n(Cc2ccccc2)c(=O)[nH]c1=O > 59.9 µg/mL

Returns the measured solubility kinetic for the input compound. Input: CCCCCC(O)(CCN1CCCCC1)c1ccccc1.Cl (stereo not given) > 48.9 µg/mL

Returns the measured solubility kinetic for the input compound. Input: CC1(C)Cc2ccccc2C(NN=C2CCCC2)=N1 > 38.3 µg/mL

Returns the measured solubility kinetic for the input compound. Input: CCOC(=O)c1c(C)nc(C)c(C(=O)OCC)c1-c1ccco1 > 47.6 µg/mL

* * *

- condition_context: buffer; pH 7.4; 200.0 µM
Think of 20 µg/mL as a floor: if solubility kinetic stands on it or above, it is Fulfilled; beneath it, Not fulfilled.

solubility kinetic >= 20 µg/mL for O=C(Nc1cccc(F)c1)c1c(O)c2cccc3c2n(c1=O)CCC3 ? Not fulfilled

solubility kinetic >= 20 µg/mL for Cc1ccc(C2CC(=O)NC(SCC(N)=O)=C2C#N)s1 (centres undefined) ? Fulfilled

solubility kinetic >= 20 µg/mL for OCCC1CN(C/C=C/c2ccco2)CCN1Cc1ccccc1 (centres undefined) ? Fulfilled

solubility kinetic >= 20 µg/mL for COc1ccc(NC(=O)CN(C)CC(=O)NC2CCC(C)CC2)cc1 (centres undefined) ? Fulfilled

solubility kinetic >= 20 µg/mL for CCCOC(=O)c1ccc(NC(=O)c2ccccc2[N+](=O)[O-])cc1 ? Not fulfilled

solubility kinetic >= 20 µg/mL for O=C(CNC(=O)c1ccco1)OCc1ccc(Br)cc1 ? Fulfilled

solubility kinetic >= 20 µg/mL for CCCCC1CCC(C(=O)OC(C)C(=O)Nc2ccc(NC(C)=O)cc2)CC1 (centres undefined) ? Not fulfilled

solubility kinetic >= 20 µg/mL for CC1CC(Nc2ccccc2)c2ccccc2N1C(=O)c1ccco1 (centres undefined) ? Not fulfilled

solubility kinetic >= 20 µg/mL for Cc1ccccc1OCC(=O)NC(C)c1ccccc1 (centres undefined) ? Fulfilled

solubility kinetic >= 20 µg/mL for CN(C)CC(C)(C)CNc1ccc(S(=O)(=O)N2CCCC2)cn1 ? Fulfilled

solubility kinetic >= 20 µg/mL for CC(=O)c1cccc(NC(=O)C(C)OC(=O)C2=NNC(=O)CC2)c1 (centres undefined) ? Fulfilled

solubility kinetic >= 20 µg/mL for CC1CN(CCc2ccccc2)C(C)C/C1=N/O (centres undefined) ? Fulfilled

solubility kinetic >= 20 µg/mL for CCCC(=O)OCCNc1cc(SCCC(=O)OC)c2nonc2c1[N+](=O)[O-] ? Not fulfilled

solubility kinetic >= 20 µg/mL for CSc1ncccc1C(=O)Nc1cc(C)ccn1 ? Fulfilled

solubility kinetic >= 20 µg/mL for CCN1CCN(C(=O)c2cc3cc(F)ccc3[nH]2)CC1 ? Fulfilled

solubility kinetic >= 20 µg/mL for CCOc1ccc(NC(=S)Nc2cccc3cnccc23)cc1 ? Fulfilled

solubility kinetic >= 20 µg/mL for CC(=O)NO ? Not fulfilled

solubility kinetic >= 20 µg/mL for CSc1ncccc1C(=O)Nc1ccc2c(c1)OCCO2 ? Not fulfilled

solubility kinetic >= 20 µg/mL for Cc1ccc(Cl)c(OCCN2CCc3ccccc3C2)c1.Cl ? Not fulfilled

solubility kinetic >= 20 µg/mL for CCOC(=O)NN1C(=O)c2ccccc2NC1c1cccnc1 (centres undefined) ? Fulfilled

solubility kinetic >= 20 µg/mL for O=[N+]([O-])c1ccc2c(c1)ncn2CCc1ccccc1 ? Not fulfilled

solubility kinetic >= 20 µg/mL for CC(Oc1ccccc1F)C(=O)NC1CCS(=O)(=O)C1 (centres undefined) ? Fulfilled

solubility kinetic >= 20 µg/mL for Cc1cccc(S(=O)(=O)Nc2nc3ccccc3nc2OC(C)C)c1 ? Not fulfilled

solubility kinetic >= 20 µg/mL for Cc1nc(Cl)c2c(n1)NC(=O)CO2 ? Fulfilled

solubility kinetic >= 20 µg/mL for O=C(NC1CCCCCC1)C1CCCN(c2ncccn2)C1 (centres undefined) ? Fulfilled

solubility kinetic >= 20 µg/mL for Cc1ccccc1OCCn1c(=S)[nH]c2ccccc21 ? Not fulfilled

solubility kinetic >= 20 µg/mL for CC(=O)Nc1ccc(S(=O)(=O)NCCCN2CCOCC2)cc1 ? Fulfilled

solubility kinetic >= 20 µg/mL for O=C(O)c1cc(O)ccc1NC(=O)C(c1ccccc1)c1ccccc1 ? Fulfilled

solubility kinetic >= 20 µg/mL for CCc1noc(C)c1C(=O)Nc1nc2c(C)cccc2s1 ? Not fulfilled

solubility kinetic >= 20 µg/mL for O=C(O)C1C2CCC(O2)C1C(=O)Nc1ccccc1Br (centres undefined) ? Fulfilled

solubility kinetic >= 20 µg/mL for CC1CCCC(NC(=O)CSc2ncnc3ccccc23)C1C (centres undefined) ? Fulfilled

solubility kinetic >= 20 µg/mL for CS(=O)(=O)N1Cc2ccccc2CC1C(=O)OCC(=O)NCCc1ccc(S(N)(=O)=O)cc1 (centres undefined) ? Fulfilled

solubility kinetic >= 20 µg/mL for CC(=O)Nc1ccc(NS(=O)(=O)c2ccc3c(c2)oc(=O)n3C)cc1 ? Fulfilled

solubility kinetic >= 20 µg/mL for Cc1ccc(S(=O)(=O)N(C)C)cc1NC(=O)C1CCCCC1 ? Fulfilled

solubility kinetic >= 20 µg/mL for CC(Cl)C(=O)Nc1c2c(nn1-c1ccccc1)CSC2 (centres undefined) ? Fulfilled

solubility kinetic >= 20 µg/mL for CN1C(=O)c2ccc(NC(=O)CSc3ccccc3)cc2C1=O ? Not fulfilled

solubility kinetic >= 20 µg/mL for COc1cccc(NC(=O)NC2CCCCCCC2)c1 ? Not fulfilled

solubility kinetic >= 20 µg/mL for CC1c2ccccc2N(NC(=O)Cc2ccccc2)C1C (centres undefined) ? Fulfilled

solubility kinetic >= 20 µg/mL for O=C(COC(=O)CNC(=O)C1CCCCC1)Nc1cccc(F)c1 ? Fulfilled

solubility kinetic >= 20 µg/mL for O=S(=O)(Nc1ccccc1N1CCCCC1)c1ccccc1 ? Not fulfilled

solubility kinetic >= 20 µg/mL for CCOC(=O)NC(=O)CN1C(=O)NC2(CCc3ccccc32)C1=O (centres undefined) ? Fulfilled

solubility kinetic >= 20 µg/mL for O=C(O)c1c(-n2cccc2)sc2c1CCCC2 ? Fulfilled

solubility kinetic >= 20 µg/mL for CC(CN1C(C)CCCC1C)OC(=O)c1cccc(F)c1.Cl (centres undefined) ? Fulfilled

solubility kinetic >= 20 µg/mL for O=C(NCc1cccnc1)Nc1ccc(Br)cc1 ? Fulfilled

* * *

- condition_context: buffer; pH 7.4; 200.0 µM
Think of 40 µg/mL as a floor: if solubility kinetic stands on it or above, it is Satisfied; beneath it, Not satisfied.

solubility kinetic >= 40 µg/mL for COc1ccc(NC(=O)c2ccccc2Oc2ccccc2)c(OC)c1 ? Not satisfied

solubility kinetic >= 40 µg/mL for CCc1ccccc1NC(=O)NCCN1CCCCC1 ? Satisfied

solubility kinetic >= 40 µg/mL for CC(C)(C)c1ccc(C(=O)NCC(=O)N2CCCCCC2)cc1 ? Satisfied

solubility kinetic >= 40 µg/mL for CC(C(=O)Nc1ccc(C#N)cc1)N(C)Cc1cccs1 (stereo not given) ? Satisfied

solubility kinetic >= 40 µg/mL for COc1ccc(NC(=O)c2csc(C)c2)cc1OC ? Satisfied

solubility kinetic >= 40 µg/mL for COc1ccc(O)c(CNc2ccccc2F)c1 ? Not satisfied

solubility kinetic >= 40 µg/mL for CC(=O)c1ccc(NC(=O)C(C)NCc2ccc(Cl)cc2)cc1 (stereo not given) ? Satisfied

solubility kinetic >= 40 µg/mL for COc1ccc([N+](=O)[O-])cc1NC(=O)COC(=O)c1ccccn1 ? Not satisfied

solubility kinetic >= 40 µg/mL for Cn1cnc(S(=O)(=O)Nc2ccccc2C(=O)NCC2CC2)c1 ? Satisfied

solubility kinetic >= 40 µg/mL for CC(C)N(Cc1ccccc1)C(=O)COC(=O)C1CCCCC1 ? Satisfied

solubility kinetic >= 40 µg/mL for O=C(Nc1nnc(-c2ccco2)o1)c1cccc(N2C(=O)CCC2=O)c1 ? Satisfied

solubility kinetic >= 40 µg/mL for CCOC(=O)N1CCN(c2cc(NCCO)c([N+](=O)[O-])c3nonc23)CC1 ? Not satisfied

solubility kinetic >= 40 µg/mL for O=S(=O)(NCC(O)c1ccccc1)c1ccc(-c2ccccn2)s1 (stereo not given) ? Satisfied

solubility kinetic >= 40 µg/mL for O=C(CSc1nc2ccccc2s1)NC1CCCC1 ? Not satisfied

solubility kinetic >= 40 µg/mL for CC(C)(C)C(=O)Nc1cc2c3c(c1)CCN3C(=O)CC2 ? Satisfied

solubility kinetic >= 40 µg/mL for CCOc1ccccc1/C=C(\C(=O)O)c1ccc(S(=O)(=O)N2CCCCC2)s1 ? Satisfied

solubility kinetic >= 40 µg/mL for COc1ccc(S(=O)(=O)N2CCNC(=O)CC2)cc1 ? Not satisfied

solubility kinetic >= 40 µg/mL for N#Cc1ccc(OCC(O)CS(=O)(=O)c2ccc(F)cc2)cc1 (stereo not given) ? Satisfied

solubility kinetic >= 40 µg/mL for Cc1ccc(OCC(=O)Nc2ccc3oc(=O)ccc3c2)cc1 ? Not satisfied

solubility kinetic >= 40 µg/mL for Cc1cccc2cc(-c3nc4ccc(C(=O)O)cc4[nH]3)c(=O)oc12 ? Not satisfied

solubility kinetic >= 40 µg/mL for O=C(NC1CC2CCCC(C1)N2C(=O)Nc1ccccc1Cl)C1CC1 (stereo not given) ? Satisfied

solubility kinetic >= 40 µg/mL for O=C(CCCOc1ccccc1)Nc1cccc(S(=O)(=O)N2CCOCC2)c1 ? Satisfied

solubility kinetic >= 40 µg/mL for Cc1ccc(N2CCN(c3ncccc3[N+](=O)[O-])CC2)c(C)c1 ? Not satisfied

solubility kinetic >= 40 µg/mL for CCC(=O)Nc1ccc2c(c1)nc1n2CCN(CCOC)C1 ? Satisfied

solubility kinetic >= 40 µg/mL for Cc1cccnc1NC(=O)Nc1cccc(Cl)c1 ? Not satisfied

solubility kinetic >= 40 µg/mL for CC(OC(=O)/C(C#N)=C/c1ccco1)C(=O)N(C)c1ccccc1 (stereo not given) ? Satisfied

solubility kinetic >= 40 µg/mL for Cc1ccc(NCC(=O)Nc2ccc(Br)cc2)cc1C ? Not satisfied

solubility kinetic >= 40 µg/mL for COc1ccc(CCNCc2ccccc2F)cc1.O=C(O)C(=O)O ? Satisfied

solubility kinetic >= 40 µg/mL for O=C(Oc1cc(Cl)cc(Cl)c1)c1cnc2n(c1=O)CCS2 ? Satisfied

solubility kinetic >= 40 µg/mL for CCOC(=O)c1ccc(NC(=S)Nc2cccc(N)n2)cc1 ? Not satisfied

solubility kinetic >= 40 µg/mL for Cc1ccc(C2=NOC3(CC(=O)N(c4ccccc4)C3=O)C2)cc1 (stereo not given) ? Satisfied

solubility kinetic >= 40 µg/mL for COc1cccc2cc(C(=O)OCC(=O)NC3CCCC(C)C3C)c(=O)oc12 (stereo not given) ? Not satisfied

solubility kinetic >= 40 µg/mL for COc1ccc2c(c1)Sc1ccccc1N2 ? Not satisfied
